// provenance: paper PMC7242440

Target: T1, Mpa (Mycobacterium tuberculosis, UniProt P9WQN5)
T1 chain: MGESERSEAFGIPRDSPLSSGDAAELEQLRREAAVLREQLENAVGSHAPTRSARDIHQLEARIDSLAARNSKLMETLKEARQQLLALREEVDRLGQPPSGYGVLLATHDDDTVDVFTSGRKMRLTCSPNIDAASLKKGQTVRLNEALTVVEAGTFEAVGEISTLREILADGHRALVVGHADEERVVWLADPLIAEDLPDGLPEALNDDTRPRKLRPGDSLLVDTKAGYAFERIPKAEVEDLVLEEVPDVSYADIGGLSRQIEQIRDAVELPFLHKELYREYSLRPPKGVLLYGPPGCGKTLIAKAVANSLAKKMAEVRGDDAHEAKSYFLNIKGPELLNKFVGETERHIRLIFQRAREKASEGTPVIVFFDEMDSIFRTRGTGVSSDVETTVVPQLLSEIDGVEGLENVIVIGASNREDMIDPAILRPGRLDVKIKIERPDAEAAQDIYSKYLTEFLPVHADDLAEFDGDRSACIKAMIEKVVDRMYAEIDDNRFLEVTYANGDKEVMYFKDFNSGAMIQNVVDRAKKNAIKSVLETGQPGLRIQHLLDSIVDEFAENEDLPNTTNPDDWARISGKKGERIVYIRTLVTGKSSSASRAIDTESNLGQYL
Experiment: NMR
pKd: −log10 of the molar value.
REPORTED ENDPOINT: pKd

What measured pKd goes with Pup (protein) MAQEQTKRGGGGGDDDDIAGSTAAGQERREKLTEETDDLLDEIDDVLEENAEDFVRAYVQKGGQ ?
~4.55
